Measured values drawn from FireProtDB (doi:10.1021/bi9910169) for this set.

B1: Lysozyme C, P61626 (parent)
chain: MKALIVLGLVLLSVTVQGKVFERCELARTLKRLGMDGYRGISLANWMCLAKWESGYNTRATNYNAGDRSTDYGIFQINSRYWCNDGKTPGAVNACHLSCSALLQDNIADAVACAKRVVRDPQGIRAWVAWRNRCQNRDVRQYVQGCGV

Variants of: B1
Conditions: Homo sapiens; pH 2.7; Thermal; DSC; glycine-HCl 0.05 M; reversible: yes; structure 1LZ1; whole UniProt chain shown
Kindly state unfolding enthalpy (calorimetric) for each of the entries shown.
Answers are plain numbers, in kcal/mol.

[[record]]
mutation_annotation = "T58V"
value_measured = 93

[[record]]
mutation_annotation = "T88V"
value_measured = 107

[[record]]
mutation_annotation = "T70A"
value_measured = 103

[[record]]
mutation_annotation = "T70V"
value_measured = 102

[[record]]
mutation_annotation = "T88A"
value_measured = 101


In: Need unfolding enthalpy (calorimetric), item T58A
Out: 99.9
